// values below are reported EC50
assayed-target: human F508del-CFTR (Homo sapiens, UniProt P13569, DEL508-508)
Sequence (P13569 with tags, fused parts or gaps DEL508-508): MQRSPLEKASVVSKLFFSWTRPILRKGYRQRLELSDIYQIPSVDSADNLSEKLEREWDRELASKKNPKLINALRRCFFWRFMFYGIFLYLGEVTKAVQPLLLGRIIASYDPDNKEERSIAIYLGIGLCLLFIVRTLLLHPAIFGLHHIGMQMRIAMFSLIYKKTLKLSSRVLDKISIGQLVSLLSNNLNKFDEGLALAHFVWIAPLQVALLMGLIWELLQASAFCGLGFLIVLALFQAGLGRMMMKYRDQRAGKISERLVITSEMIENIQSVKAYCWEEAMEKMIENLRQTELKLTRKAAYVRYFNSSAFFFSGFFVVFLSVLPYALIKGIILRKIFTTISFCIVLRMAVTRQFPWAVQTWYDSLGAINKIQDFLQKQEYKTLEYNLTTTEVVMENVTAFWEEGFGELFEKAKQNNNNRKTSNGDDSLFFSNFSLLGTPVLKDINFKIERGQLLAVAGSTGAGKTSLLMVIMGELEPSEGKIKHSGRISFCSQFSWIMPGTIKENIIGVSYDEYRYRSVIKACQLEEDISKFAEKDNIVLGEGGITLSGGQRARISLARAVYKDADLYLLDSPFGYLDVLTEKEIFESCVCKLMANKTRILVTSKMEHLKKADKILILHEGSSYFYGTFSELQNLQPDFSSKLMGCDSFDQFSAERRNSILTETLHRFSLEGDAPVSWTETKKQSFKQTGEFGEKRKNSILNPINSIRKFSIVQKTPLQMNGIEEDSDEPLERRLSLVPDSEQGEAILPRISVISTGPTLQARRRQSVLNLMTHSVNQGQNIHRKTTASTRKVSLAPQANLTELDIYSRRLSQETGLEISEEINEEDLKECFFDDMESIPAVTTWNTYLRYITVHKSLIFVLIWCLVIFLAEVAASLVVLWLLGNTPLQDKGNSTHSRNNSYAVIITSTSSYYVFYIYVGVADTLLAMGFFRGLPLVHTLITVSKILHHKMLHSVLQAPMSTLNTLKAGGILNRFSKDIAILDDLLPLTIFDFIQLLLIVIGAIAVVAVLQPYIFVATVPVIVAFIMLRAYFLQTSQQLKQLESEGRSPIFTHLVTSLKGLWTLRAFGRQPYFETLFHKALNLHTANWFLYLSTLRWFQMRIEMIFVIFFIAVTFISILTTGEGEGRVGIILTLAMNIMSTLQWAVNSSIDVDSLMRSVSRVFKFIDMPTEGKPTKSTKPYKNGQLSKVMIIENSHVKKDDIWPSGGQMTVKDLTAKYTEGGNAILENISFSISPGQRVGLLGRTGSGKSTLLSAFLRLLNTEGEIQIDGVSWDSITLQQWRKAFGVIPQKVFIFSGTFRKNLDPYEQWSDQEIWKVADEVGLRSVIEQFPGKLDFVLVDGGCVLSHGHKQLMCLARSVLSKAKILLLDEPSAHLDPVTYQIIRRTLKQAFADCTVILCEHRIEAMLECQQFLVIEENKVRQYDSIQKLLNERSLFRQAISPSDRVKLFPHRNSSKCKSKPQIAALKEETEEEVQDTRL
measurement-notes: F508del-CFTR cell surface expression (corrector activity), DiscoveRx ß-galactosidase complementation chemiluminescence assay in recombinant U2OS cell line
measurement-context: EC50, F508del-CFTR cell surface expression, U2OS cells, 16h compound incubation; geomean of several measurements
measurement-name: EC50 (µM)

INSERT INTO measurements (compound, unit_abbreviation, test_result) VALUES
  ('CC(C)C[C@H]1C(=O)N(C)[C@H](Cc2nc(C(F)(F)F)no2)C(=O)N[C@H](Cc2ccccc2)COc2ccc3ncc(F)cc3c2C(=O)N[C@H](C(=O)NCCc2nc3ncccn3n2)CC(=O)N1C [Example 908]', 'µM', 0.094),
  ('COc1cc(CCNC(=O)[C@@H]2CC(=O)N(C)[C@@H](CC(C)C)C(=O)N(C)[C@H](Cc3nc(C(F)(F)F)no3)C(=O)N[C@H](Cc3ccccc3)COc3c[n+]([O-])c4ccc(F)cc4c3C(=O)N2)on1 [Example 981]', 'µM', 0.133),
  ('COc1nc(C)cc2c1C(=O)N[C@H](C(=O)NC[C@@H](O)c1ccccc1)CC(=O)N(C)[C@@H](CC(C)C)C(=O)N(C)[C@H](CC(C)C)C(=O)N[C@H](Cc1ccccc1)CO2 [Example 828]', 'µM', 0.299),
  ('Cc1cc2c3c(ccc2cn1)OC[C@@H](Cc1ccccc1)NC(=O)[C@@H](CC(F)(F)F)N(C)C(=O)[C@H](CC(C)C)N(C)C(=O)C[C@@H](C(=O)NCCn1nnc(C2CC2)n1)NC3=O [Example 959]', 'µM', 0.222),
  ('COc1noc(CCNC(=O)[C@@H]2CC(=O)N(C)[C@@H](CC(C)C)C(=O)N3CCCC[C@@H]3C(=O)N[C@H](Cc3ccccc3)COc3ccc4ncc(F)cc4c3C(=O)N2)c1F [Example 973]', 'µM', 0.117),
  ('COCCn1cc(CCNC(=O)[C@@H]2CC(=O)N(C)[C@@H](CC(C)C)C(=O)N(C)C3(CC3)C(=O)N[C@H](Cc3ccccc3)COc3cnc4ccc(F)cc4c3C(=O)N2)cn1 [Example 830]', 'µM', 1.04),
  ('CC(C)C[C@H]1C(=O)N(C)[C@H](Cc2nc(C(F)(F)F)no2)C(=O)N[C@H](Cc2ccccc2)COc2ccc3ncc(F)cc3c2C(=O)N[C@H](C(=O)NCCc2nc(C3CC3)no2)CC(=O)N1C [Example 964]', 'µM', 0.021),
  ('CC(C)C[C@H]1C(=O)N(C)[C@H](Cc2nc(-c3ccc(F)cn3)no2)C(=O)N[C@H](Cc2ccccc2)COc2ccc3ncc(F)cc3c2C(=O)N[C@H](C(=O)NCCc2nc(C3CC3)no2)CC(=O)N1C [Example 808]', 'µM', 0.116),
  ('CC(C)C[C@H]1C(=O)N(C)[C@H](Cc2nc(C(F)(F)F)no2)C(=O)N[C@H](Cc2ccccc2)COc2ccc3ncc(F)cc3c2C(=O)N[C@H](C(=O)NCCn2nnc(C3CC3)n2)CC(=O)N1C [Example 924]', 'µM', 0.033),
  ('COc1noc(CCNC(=O)[C@@H]2CC(=O)N(C)[C@@H](CC(C)C)C(=O)N(C)[C@H](CC(F)(F)F)C(=O)N[C@H](Cc3ccccc3)COc3ccc4cnc(C)cc4c3C(=O)N2)c1F [Example 960]', 'µM', 0.085);

###

assayed-target: human F508del-CFTR (Homo sapiens, UniProt P13569, DEL508-508)
measurement-notes: F508del-CFTR cell surface expression (corrector activity), DiscoveRx ß-galactosidase complementation chemiluminescence assay in recombinant U2OS cell line
measurement-context: EC50, F508del-CFTR cell surface expression, U2OS cell line, 16h compound incubation; geomean values
pEC50: −log10 of the molar value.
measurement-name: pEC50

INSERT INTO measurements (mol_smiles, assayed_target, test_result) VALUES
  ('CC(C)C[C@H]1C(=O)N(C)C2(CC2)C(=O)N[C@H](Cc2ccccc2)COc2cnc3ccccc3c2C(=O)N[C@H](C(=O)NCCc2ccc(F)c(F)c2)CC(=O)N1C', 'human F508del-CFTR (Homo sapiens, UniProt P13569, DEL508-508)', 6.43),
  ('COc1nccc2c1C(=O)N[C@H](C(=O)NCCc1nc(C(F)(F)F)no1)CC(=O)N(C)[C@@H](CC(C)C)C(=O)N1CCCC[C@@H]1C(=O)N[C@H](Cc1ccccc1)CO2', 'human F508del-CFTR (Homo sapiens, UniProt P13569, DEL508-508)', 6.17),
  ('[2H]C1([2H])Oc2ccc3c(c2O1)C(=O)N[C@H](C(=O)NCCc1ccc2c(c1)OCO2)CC(=O)N(C)[C@@H](CC(C)C)C(=O)N(C)CC(=O)N[C@H](Cc1ccccc1)CO3', 'human F508del-CFTR (Homo sapiens, UniProt P13569, DEL508-508)', 6.30),
  ('COc1cccc(CCNC(=O)[C@@H]2CC(=O)N(C)[C@@H](CC(C)C)C(=O)N3CCN(C4CC4)C[C@H]3C(=O)N[C@H](Cc3ccccc3)COc3ccc4ccccc4c3C(=O)N2)c1', 'human F508del-CFTR (Homo sapiens, UniProt P13569, DEL508-508)', 6.32),
  ('COc1ccc(CCNC(=O)[C@@H]2CC(=O)N(C)[C@@H](CC(C)C)C(=O)N(C)C3(CC3)C(=O)N[C@H](Cc3ccccc3)COc3cnc4ccccc4c3C(=O)N2)cc1', 'human F508del-CFTR (Homo sapiens, UniProt P13569, DEL508-508)', 6.41),
  ('COc1cccc(CCNC(=O)[C@@H]2CC(=O)N(C)[C@@H](CC(C)C)C(=O)N(CCC3CCCCC3)CC(=O)N[C@H](Cc3ccccc3)COc3cccc(OC)c3C(=O)N2)n1', 'human F508del-CFTR (Homo sapiens, UniProt P13569, DEL508-508)', 6.59),
  ('COc1cccc(CCNC(=O)[C@@H]2CC(=O)N(C)[C@@H](CC(C)C)C(=O)N(C)CC(=O)N[C@H](Cc3ccccc3)COc3cc(C)ccc3C(=O)N2)c1', 'human F508del-CFTR (Homo sapiens, UniProt P13569, DEL508-508)', 6.21),
  ('CC(C)C[C@H]1C(=O)N(C)CC(=O)N[C@H](Cc2ccccc2)COc2ccc(F)cc2C(=O)N[C@H](C(=O)NCCc2ccc3c(c2)OCO3)CC(=O)N1C', 'human F508del-CFTR (Homo sapiens, UniProt P13569, DEL508-508)', 6.33),
  ('Cc1cc(CCNC(=O)[C@@H]2CC(=O)N(C)[C@@H](CC(C)C)C(=O)N3CCCC[C@@H]3C(=O)N[C@H](Cc3ccccc3)COc3cnc4ccccc4c3C(=O)N2)ccc1-n1nccn1', 'human F508del-CFTR (Homo sapiens, UniProt P13569, DEL508-508)', 6.57),
  ('COc1cccc(CCNC(=O)[C@@H]2CC(=O)N(C)CC(=O)N(CCC3CCCCC3)CC(=O)N[C@H](Cc3ccccc3)COc3cccc(OC)c3C(=O)N2)c1', 'human F508del-CFTR (Homo sapiens, UniProt P13569, DEL508-508)', 6.37);

###

assayed-target: human F508del-CFTR (Homo sapiens, UniProt P13569, DEL508-508)
measurement-notes: F508del-CFTR cell surface expression (corrector activity), DiscoveRx ß-galactosidase complementation chemiluminescence assay in recombinant U2OS cell line;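 further: U2OS cells co-expressing ProLink-tagged F508del-CFTR and a membrane-anchored enzyme acceptor, where more surface CFTR restores β-galactosidase activity measured by chemiluminescence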
measurement-context: U2OS, in relation to the Emax of the corrector lumacaftor (=100%); U2OS cells, 16h compound incubation; arithmetic mean
The label depends only on Emax: 1.0 if it is at least 400%, 0.0 if it is smaller.

INSERT INTO assay_data (mol_smiles, label_value) VALUES
  ('COc1nc(C)nc2c1C(=O)N[C@H](C(=O)NCCc1cc(C3CC3)no1)CC(=O)N(C)[C@@H](CC(C)C)C(=O)N(C)[C@H](C)C(=O)N[C@H](Cc1ccccc1)CO2', 0.0),
  ('COc1nccc2c1C(=O)N[C@H](C(=O)NCCc1noc(C3CC3)n1)CC(=O)N(C)[C@@H](CC(C)C)C(=O)N(C)[C@H](Cn1cc(-c3ccccc3)nn1)C(=O)N[C@H](Cc1ccccc1)CO2', 0.0),
  ('CC(C)C[C@H]1C(=O)N(C)[C@H](Cc2nc(-c3ccc(F)cn3)no2)C(=O)N[C@H](Cc2ccccc2)COc2cnc3ccc(F)cc3c2C(=O)N[C@H](C(=O)NCCn2ncc(C3CC3)n2)CC(=O)N1C', 0.0),
  ('COc1nc(C)cc2c1C(=O)N[C@H](C(=O)NC[C@@H](O)c1nc(C3CC3)no1)CC(=O)N(C)[C@@H](CC(C)C)C(=O)N(C)[C@H](Cc1nc(C(F)(F)F)no1)C(=O)N[C@H](Cc1ccccc1)CO2', 1.0),
  ('COc1nc(C)cc2c1C(=O)N[C@H](C(=O)NCCc1noc(C3CC3)n1)CC(=O)N(C)[C@@H](CC(C)C)C(=O)N(C)[C@H](Cc1nc(C(F)(F)F)no1)C(=O)N[C@H](Cc1ccccc1)CO2', 1.0),
  ('COc1cc(CCNC(=O)[C@@H]2CC(=O)N(C)[C@@H](CC(C)C)C(=O)N(C)[C@H](CN3CCC(F)(F)C3)C(=O)N[C@H](Cc3ccccc3)COc3cnc4ccc(F)cc4c3C(=O)N2)on1', 0.0),
  ('Cc1cc2c3c(ccc2cn1)OC[C@@H](Cc1ccccc1)NC(=O)C1(CC1)N(C)C(=O)[C@H](CC(C)C)N(C)C(=O)C[C@@H](C(=O)NCCc1noc(C2CC2)n1)NC3=O', 0.0),
  ('CC(C)C[C@H]1C(=O)N(C)[C@H](CCc2nc(-c3ccc(F)cn3)no2)C(=O)N[C@H](Cc2ccccc2)COc2cnc3ccc(F)cc3c2C(=O)N[C@H](C(=O)NCCc2noc(C3CC3)n2)CC(=O)N1C', 0.0);
